- system: Gal(b1-4)Glc
- test_summary: glycan array binding signal (z-score within array); higher = stronger binding
- condition_details: glycan notation: IUPAC condensed, linker removed
The sample as a whole holds a higher share of the strongest signals than the screen did.
endpoint: glycan array binding signal (z-score)
Could you respond with only the numeric value?

Lab note: LKITALY (Gibberella zeae) (protein) MGNFHESSNNIWLEDGHILHAECGNGEGDYVESTLDLDYYIGNDDGSFSWGGENFSGSASNITLDIEGDDNIPVLRAELNPMDGDPVEANVNLSERIGNDCGTLIFLA gave glycan array binding signal (z-score) of -0.357
